Assay: Equilibrium solubility in different solvents (saturation shake-flask, HPLC)
Format: physicochemical
Details: n-butanol, 20 °C, organic solvent or mixture, thermodynamic from solid
recorded-metric: solubility thermodynamic at 48 h (µg/mL)
One number for each entry, in µg/mL.

Just so you know, measured solubility thermodynamic at 48 h for C=C(C)[C@@H]1CC[C@]2(C(=O)O)CC[C@]3(C)[C@H](CC[C@@H]4[C@@]5(C)CC[C@H](O)C(C)(C)[C@@H]5CC[C@]43C)[C@@H]12 [BA, 3β-hydroxy-lup-20(29)-en-28-oic acid, reference compound] came out at 4140

* * *

Assay: Equilibrium solubility in different solvents (saturation shake-flask, HPLC)
Assay type: physicochemical
Conditions: methanol, 20 °C, organic solvent or mixture, thermodynamic from solid
recorded-metric: solubility thermodynamic at 48 h
Remember to quote the unit after the number.

// C=C(C)[C@@H]1CC[C@]2(C(=O)O)CC[C@]3(C)[C@H](CC[C@@H]4[C@@]5(C)CC[C@H](O)C(C)(C)[C@@H]5CC[C@]43C)[C@@H]12 [BA, 3β-hydroxy-lup-20(29)-en-28-oic acid, reference compound] : solubility thermodynamic at 48 h value = 1920 µg/mL

* * *

Experiment: Apparent oil/water partition coefficient (water-saturated n-octanol vs phosphate buffer)
Format: physicochemical
Details: water-saturated n-octanol/phosphate buffer, pH 5, n-octanol/phosphate buffer pH 5; read-out: LogP
recorded-metric: logP

Recorded result, C=C(C)[C@@H]1CC[C@]2(COC(=O)CCC(=O)O)CC[C@]3(C)C(CCC4[C@@]5(C)CC[C@H](O)C(C)(C)C5CC[C@]43C)C12 (stereo partly shown) , logP: 0.99

* * *

Test: Equilibrium solubility in phosphate buffer at different pH
Format: physicochemical
Settings: 20 °C, aqueous buffer, thermodynamic from solid; phosphate buffer pH 7
recorded-metric: solubility thermodynamic at 48 h (µg/mL)
Numbers only, in µg/mL.

Please fill in: solubility thermodynamic at 48 h reported for C=C(C)[C@@H]1CC[C@]2(COC(=O)CCC(=O)O)CC[C@]3(C)C(CCC4[C@@]5(C)CC[C@H](O)C(C)(C)C5CC[C@]43C)C12 (stereo partly shown) = 10.9

* * *

Assay: Equilibrium solubility in phosphate buffer at different pH
Type: physicochemical
Settings: 20 °C, aqueous buffer, thermodynamic from solid; phosphate buffer pH 6
recorded-metric: solubility thermodynamic at 48 h (µg/mL)
One number for each entry, in µg/mL.

# solubility thermodynamic at 48 h of C=C(C)[C@@H]1CC[C@]2(COC(=O)CCC(=O)O)CC[C@]3(C)C(CCC4[C@@]5(C)CC[C@H](O)C(C)(C)C5CC[C@]43C)C12 (stereo partly shown) = 2.66

* * *

Assay: Apparent oil/water partition coefficient (water-saturated n-octanol vs phosphate buffer)
Assay type: physicochemical
Details: water-saturated n-octanol/phosphate buffer, pH 8, n-octanol/phosphate buffer pH 8; read-out: LogP
recorded-metric: logP
One number for each entry.

Consider C=C(C)[C@@H]1CC[C@]2(COC(=O)CCC(=O)O)CC[C@]3(C)C(CCC4[C@@]5(C)CC[C@H](O)C(C)(C)C5CC[C@]43C)C12 (stereo partly shown) . Its measured logP is 0.98

* * *

Assay: Equilibrium solubility in phosphate buffer at different pH
Format: physicochemical
Conditions: 20 °C, aqueous buffer, thermodynamic from solid; phosphate buffer pH 8
recorded-metric: solubility thermodynamic at 48 h
Could you give the number and then its unit, please?

Noted for C=C(C)[C@@H]1CC[C@]2(COC(=O)CCC(=O)O)CC[C@]3(C)C(CCC4[C@@]5(C)CC[C@H](O)C(C)(C)C5CC[C@]43C)C12 (stereo partly shown) : its solubility thermodynamic at 48 h reads 15.3 µg/mL
